# Test system: HepG2
# Protocol text: cytotoxicity call (relative viability < 0.9)
# Condition info: 10 µM
Among all 39,000 compounds or so, about 3,300 (8.5%) were called active. Shown is part of a subset that was picked to be rich in actives.
Outcome codes: active, inactive

CC(C)(C)C(=O)OCOP(=O)(OCOC(=O)C(C)(C)C)C(C)(Oc1ccc(O)cc1)P(=O)(OCOC(=O)C(C)(C)C)OCOC(=O)C(C)(C)C ... active
C[C@H](CO)N1C[C@H](C)[C@H](CN(C)Cc2ccc3c(c2)OCO3)OCCCC[C@H](C)Oc2ccc(NC(=O)Nc3ccccc3)cc2C1=O ... active
C[C@@H]1CCCCO[C@H](CN(C)Cc2ccc3c(c2)OCO3)[C@@H](C)CN([C@H](C)CO)C(=O)c2cc(NC(=O)Nc3ccccc3)ccc2O1 ... inactive
C[C@@H]1CCCCO[C@@H](CN(C)Cc2ccc3c(c2)OCO3)[C@@H](C)CN([C@@H](C)CO)C(=O)c2cc(NC(=O)Nc3ccccc3)ccc2O1 ... active
C[C@H]1CCCCO[C@@H](CN(C)Cc2ccc3c(c2)OCO3)[C@@H](C)CN([C@@H](C)CO)C(=O)c2cc(NC(=O)Nc3ccccc3)ccc2O1 ... active
CC(=O)[C@]1(N)Cc2c(O)c3c(c(O)c2[C@@H](O[C@H]2C[C@H](O)[C@H](O)CO2)C1)C(=O)c1ccccc1C3=O ... active
C[C@@H]1CCCCO[C@H](CN(C)C(=O)Nc2ccc(F)cc2)[C@H](C)CN([C@H](C)CO)C(=O)c2cc(NS(=O)(=O)c3ccc(Cl)cc3)ccc2O1 ... inactive
FC(F)(F)c1ccccc1-c1ncc(-c2ccccc2)o1 ... inactive
C[C@H]1CN([C@@H](C)CO)S(=O)(=O)c2ccc(C3=CCCCC3)cc2O[C@@H]1CN(C)C(=O)C1CCOCC1 ... inactive
CC(C)(C)Oc1ccc(O)cc1 ... inactive
COc1cccc2c1C(=O)c1c(O)c3c(c(O)c1C2=O)C[C@](O)(C(C)=O)C[C@H]3O[C@H]1C[C@@H](N)[C@@H](O)[C@@H](C)O1 ... active
COc1ccc(NC(=O)Nc2cccc3c2O[C@H](CN(C)C(=O)Nc2cccc4ccccc24)[C@H](C)CN([C@@H](C)CO)C3=O)cc1 ... inactive
COc1cccc2c1C(=O)c1c(O)c3c(c(O)c1C2=O)C[C@@](O)(C(C)=O)C[C@@H]3O[C@H]1C[C@H](N)[C@H](O)[C@H](C)O1 ... active
C[C@@H]1CN([C@@H](C)CO)C(=O)c2cc(NS(=O)(=O)c3ccc(Cl)cc3)ccc2O[C@@H](C)CCCCO[C@H]1CN(C)C(=O)CCC(F)(F)F ... inactive
